target: NTD (SARS-CoV-2, UniProt P0DTC9 47-174); experiment: fluorescence anisotropy; 1:1 fit; Anisotropy: 50 mM Na phosphate pH 6.5, 150 mM NaCl, 1 mM NaN3, 50 nM RNA; EMSA: 20 mM Tris pH 7.5, 150 mM NaCl, 1 mM DTT, room temp, 25 uM RNA; NTD NMR: 20 mM Na phosphate pH 6.5, 20 mM NaCl, 25 C; CTD NMR: 20 mM Na phosphate pH 6, 200 mM NaCl; conditions: protein: recombinant; tags: none (tag removed by bdSENP1); label: 5',6-carboxyfluorescein (6-FAM) for anisotropy; unlabeled for NMR; single strand, no self-pairing
MEASUREMENT KIND: Kd (µM)
Response body: numeric value in µM, unit text excluded.

Query :: What does the record list as Kd for GGCACAUGGACGUC (ssRNA) [ss-14mer] ?
Result :: 22
